tested on: HepaRG cells; assay: Cell viability by neutral red and MTS (CellTiter 96 Aqueous One Solution) tests, HepaRG cells; format: cell-based, human; details: dHepaRG cells, CellTiter-Glo; read-out: Cytotoxicity (CC50 in μM) in dHepaRG CellTiter-Glo
Below, each entry is listed with its recorded CC50.

[[record]]
query_smiles = "CC(C)OC(=O)[C@H](C)N[P@](=O)(CO[C@H](C)Cn1cnc2c(N)ncnc21)Oc1ccccc1"
experimental_readout = "CC50"
result = "< 10 µM"


Request the reported CC50 associated with C[C@H](Cn1cnc2c(N)ncnc21)OCP(=O)(O)O
> 50 µM

* * *

assay: Cell viability by neutral red and MTS (CellTiter 96 Aqueous One Solution) tests, HepaRG cells; type: cell-based, human; details: human, differentiated HepaRG (dHepaRG) cells, CellTiter-Glo, read-out: Cytotoxicity (CC50 in μM) in dHepaRG CellTiter-Glo
Below, each entry is listed with its recorded CC50.

[[record]]
compound = "CC(C)OC(=O)CC1COP(=O)(CO[C@H](C)Cn2cnc3c(NC(=O)c4ccccc4)ncnc32)OC1 (stereo partly drawn)"
result = "> 50 µM"

[[record]]
compound = "CC(C)OC(=O)CC1COP(=O)(CO[C@H](C)Cn2cnc3c(N)ncnc32)OC1 (stereo partly drawn)"
result = "> 50 µM"


Request the reported CC50 associated with CC(C)OC(=O)CC1COP(=O)(CO[C@H](C)Cn2cnc3c(N(C(=O)c4ccccc4)C(=O)c4ccccc4)ncnc32)OC1 (stereo partly drawn)
> 50 µM
